The reported numbers originate from patent US20210253575A1.

Below, each of the compounds is paired with its reported IC50 value.
Molecular target: human TLR7 (Homo sapiens)
Sequence (Q9NYK1 27-1049): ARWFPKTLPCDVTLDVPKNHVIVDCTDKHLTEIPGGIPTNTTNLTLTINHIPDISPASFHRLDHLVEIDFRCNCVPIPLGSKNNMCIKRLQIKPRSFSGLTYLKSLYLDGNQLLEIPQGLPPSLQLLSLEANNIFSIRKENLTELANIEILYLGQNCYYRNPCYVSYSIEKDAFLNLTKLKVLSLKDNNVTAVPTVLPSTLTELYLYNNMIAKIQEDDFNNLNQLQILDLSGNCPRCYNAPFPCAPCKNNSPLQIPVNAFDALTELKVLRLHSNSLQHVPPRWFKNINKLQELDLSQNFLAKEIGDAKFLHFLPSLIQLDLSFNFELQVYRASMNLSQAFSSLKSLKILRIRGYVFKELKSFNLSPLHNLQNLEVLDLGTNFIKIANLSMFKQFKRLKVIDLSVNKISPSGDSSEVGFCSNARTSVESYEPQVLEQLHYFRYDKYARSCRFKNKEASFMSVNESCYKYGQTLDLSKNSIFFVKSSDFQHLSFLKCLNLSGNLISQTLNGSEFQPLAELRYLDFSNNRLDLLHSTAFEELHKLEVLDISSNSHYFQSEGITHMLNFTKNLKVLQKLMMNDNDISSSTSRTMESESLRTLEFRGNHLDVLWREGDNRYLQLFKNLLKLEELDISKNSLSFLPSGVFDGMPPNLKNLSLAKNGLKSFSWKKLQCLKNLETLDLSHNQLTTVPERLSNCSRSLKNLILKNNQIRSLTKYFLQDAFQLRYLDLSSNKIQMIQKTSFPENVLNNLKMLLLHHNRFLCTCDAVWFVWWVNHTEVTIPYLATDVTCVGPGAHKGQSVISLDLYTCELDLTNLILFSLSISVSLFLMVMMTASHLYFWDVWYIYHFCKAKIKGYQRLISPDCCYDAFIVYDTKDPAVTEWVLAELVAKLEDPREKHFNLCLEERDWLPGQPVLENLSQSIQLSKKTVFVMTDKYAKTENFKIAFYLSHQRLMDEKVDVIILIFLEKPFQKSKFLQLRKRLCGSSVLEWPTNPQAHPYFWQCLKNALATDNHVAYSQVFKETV
Assay: HEK293-Blue-hTLR-7 cells assay (SEAP reporter, R848 stimulation)
Details: HEK293-Blue-hTLR7 cells, R848 ligand, 20 hrs incubation
Hi! Could you send only the number? It should be in nM, unit omitted.

Sample answers from the record:
N#Cc1ccc(N2C[C@H](CN3CC4(CC(N)C4)C3)[C@@H](C(F)(F)F)C2)c2cccnc12 = 115
N#Cc1ccc(N2CC(CN3CCC4(CCCCN4)CC3)C3(CC3)C2)c2nccnc12 (centres unmarked) = 108

Problem: What does the record list as IC50 for FC(F)(F)c1ccc(N2CC(CN3CCNCC3)C3(CC3)C2)c2nccnc12 (centres unmarked) ?
Result: 156

Problem: What does the record list as IC50 for C[C@@H]1CN(c2ccc(C(F)(F)F)c3nccnc23)C[C@H]1CN1CCC2(CCNCC2)CC1 (relative stereo) ?
Result: 189

Problem: What does the record list as IC50 for N#Cc1ccc(N2CC(CN3CCC(N4CCOCC4)CC3)C3(CC3)C2)c2nccnc12 (centres unmarked) ?
Result: 313
